# measurement target: Human ENaC δ, β and γ subunit (Homo sapiens, UniProt P51168+P51170+P51172)
# Construct: expressed in transfected cells; host or cells: Xenopus laevis (African clawed frog) oocytes injected with cRNA
# Sequence (P51172 whole entry): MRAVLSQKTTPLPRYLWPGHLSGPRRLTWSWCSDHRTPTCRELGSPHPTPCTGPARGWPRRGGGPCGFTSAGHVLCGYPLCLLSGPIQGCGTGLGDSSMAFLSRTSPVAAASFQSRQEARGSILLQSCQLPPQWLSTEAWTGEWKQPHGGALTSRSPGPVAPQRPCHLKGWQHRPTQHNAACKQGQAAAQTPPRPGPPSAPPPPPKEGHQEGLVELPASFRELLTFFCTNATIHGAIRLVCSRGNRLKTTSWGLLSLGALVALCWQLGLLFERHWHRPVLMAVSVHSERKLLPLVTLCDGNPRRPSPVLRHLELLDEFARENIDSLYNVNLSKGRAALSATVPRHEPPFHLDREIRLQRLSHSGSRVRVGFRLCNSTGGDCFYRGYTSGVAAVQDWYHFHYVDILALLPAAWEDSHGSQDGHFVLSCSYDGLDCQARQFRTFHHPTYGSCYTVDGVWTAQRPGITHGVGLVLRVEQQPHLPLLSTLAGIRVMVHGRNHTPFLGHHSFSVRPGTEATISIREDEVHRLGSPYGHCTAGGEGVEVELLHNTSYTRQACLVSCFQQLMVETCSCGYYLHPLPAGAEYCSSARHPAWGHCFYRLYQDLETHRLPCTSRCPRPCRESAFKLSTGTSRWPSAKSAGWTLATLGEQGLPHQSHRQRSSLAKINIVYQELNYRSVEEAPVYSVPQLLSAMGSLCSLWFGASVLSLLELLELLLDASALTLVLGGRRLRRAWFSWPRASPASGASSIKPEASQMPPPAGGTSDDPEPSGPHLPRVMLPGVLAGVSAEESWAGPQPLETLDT
# Sequence (P51168 whole entry): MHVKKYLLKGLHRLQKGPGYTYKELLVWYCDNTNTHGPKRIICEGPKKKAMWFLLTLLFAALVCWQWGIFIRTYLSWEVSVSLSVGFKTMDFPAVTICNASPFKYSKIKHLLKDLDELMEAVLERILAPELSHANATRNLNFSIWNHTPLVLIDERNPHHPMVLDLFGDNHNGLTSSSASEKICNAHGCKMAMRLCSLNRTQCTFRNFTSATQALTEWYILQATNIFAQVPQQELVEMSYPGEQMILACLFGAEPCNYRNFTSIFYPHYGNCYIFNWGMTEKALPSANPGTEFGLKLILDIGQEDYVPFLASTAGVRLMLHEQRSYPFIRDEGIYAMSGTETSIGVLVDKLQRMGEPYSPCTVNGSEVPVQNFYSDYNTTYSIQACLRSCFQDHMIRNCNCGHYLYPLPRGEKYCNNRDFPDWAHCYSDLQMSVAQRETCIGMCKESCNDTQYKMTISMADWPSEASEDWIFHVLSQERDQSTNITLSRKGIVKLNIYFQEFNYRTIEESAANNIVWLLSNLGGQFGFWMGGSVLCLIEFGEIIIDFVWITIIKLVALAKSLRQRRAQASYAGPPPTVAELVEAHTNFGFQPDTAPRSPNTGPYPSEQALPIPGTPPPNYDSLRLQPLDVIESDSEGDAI
# Sequence (P51170 whole entry): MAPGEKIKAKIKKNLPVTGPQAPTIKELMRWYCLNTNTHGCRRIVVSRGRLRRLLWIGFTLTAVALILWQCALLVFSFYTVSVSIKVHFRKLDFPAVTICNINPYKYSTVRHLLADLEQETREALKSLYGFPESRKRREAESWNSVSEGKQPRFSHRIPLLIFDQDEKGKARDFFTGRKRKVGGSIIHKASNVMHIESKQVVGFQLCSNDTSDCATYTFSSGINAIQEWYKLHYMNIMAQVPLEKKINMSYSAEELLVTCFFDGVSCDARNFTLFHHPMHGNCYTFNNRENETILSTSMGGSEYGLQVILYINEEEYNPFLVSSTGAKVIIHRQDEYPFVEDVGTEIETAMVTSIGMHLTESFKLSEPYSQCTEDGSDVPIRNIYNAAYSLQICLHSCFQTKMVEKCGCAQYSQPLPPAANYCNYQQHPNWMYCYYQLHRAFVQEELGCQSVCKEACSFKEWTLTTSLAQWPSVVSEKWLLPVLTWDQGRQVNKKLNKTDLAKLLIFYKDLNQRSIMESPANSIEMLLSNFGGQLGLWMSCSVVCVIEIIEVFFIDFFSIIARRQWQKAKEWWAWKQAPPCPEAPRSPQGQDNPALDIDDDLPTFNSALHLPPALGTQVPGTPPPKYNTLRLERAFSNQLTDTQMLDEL
# measurement description: Measurement of ENaC activation potency (MED) in ENaC-expressing oocyte, Two Electrode Voltage Clamp
# Assay type: cell-based
# assay conditions: minimum effective dose at which current started to increase; ENaC-expressing African clawed frog oocyte; smaller MED = higher ENaC activation potency
measured attribute: MED (µM)

{"compound": "O=[N+]([O-])c1ccc(CNC(=S)NCCc2ccccc2)cc1 [Example 64]", "MED (µM)": 30}

A. C[C@@H](NC(=S)N/N=C/c1ccccc1O)c1ccccc1 [Example 35]
B. OCCNC(=S)NCc1ccccc1 [Example 15]
Compare reported MED values for A and B . Which is lower? Could you answer with the label of the item you picked? A
(A: 3 µM, B: 30 µM)

====

# measurement target: Human ENaC δ, β and γ subunit (Homo sapiens, UniProt P51168+P51170+P51172)
# Construct: expressed in transfected cells; host or cells: Xenopus laevis (African clawed frog) oocytes injected with cRNA
# measurement description: Measurement of ENaC activation potency (MED) in ENaC-expressing oocyte, Two Electrode Voltage Clamp
# Type: cell-based
# assay conditions: minimum effective dose at which current started to increase; ENaC-expressing African clawed frog oocyte; smaller MED = higher ENaC activation potency
measured attribute: MED (µM)

I. CC(C)(C)OC(=O)NCC(=O)Nc1cccc(CNC(=S)NCCc2ccccc2)c1 [Example 82]
II. C[C@H](NC(=S)NCCc1ccccc1)c1ccccc1 [Example 12]
Compare reported MED values for I and II . Which is lower? Lab note: record the label of whichever item you select. I
(I: 3 µM, II: 10 µM)

====

# measurement target: Human ENaC δ, β and γ subunit (Homo sapiens, UniProt P51168+P51170+P51172)
# Construct: expressed in transfected cells; host or cells: Xenopus laevis (African clawed frog) oocytes injected with cRNA
# measurement description: Measurement of ENaC activation potency (MED) in ENaC-expressing oocyte, Two Electrode Voltage Clamp
# Type: cell-based
# assay conditions: minimum effective dose at which current started to increase; ENaC-expressing African clawed frog oocyte; smaller MED = higher ENaC activation potency
# Description: ENaC activation current value, namely, the inward current in ENaC-expressing oocyte was measured as follows. According to the method described in Motonao Nakamura, Takao Shimizu: Experiment of African clawed frog oocyte, Experimental Medicine Vol. 11, No. 3, 224-232 (1993), oocyte was collected from African clawed frog, […], and the current value was measured by a Two Electrode Voltage Clamp technique. […]
measured attribute: MED (µM)

Consider the reported MED for these compounds:
{"compound": "COC(=O)c1ccc(CNC(=S)NCCc2ccccc2)cc1 [Example 56]", "MED [µM]": 10}
{"compound": "COc1cc2c(cc1OC)CN(C(=S)NCCc1ccc(Cl)cc1)CC2 [Example 3]", "MED [µM]": 30}
{"compound": "O=C1C(c2ccccc2)NC(=S)N1CCc1ccccc1 (stereo not shown) [Example 49]", "MED [µM]": 30}

a. Oc1ccccc1CNC(=S)NCCc1ccccc1 [Example 61]
b. CN(CCc1ccccc1)C(=S)Nc1ccccc1C(=O)O [Example 38]
c. O=C(O)c1ccc(CNC(=S)NCCc2ccccc2)cc1 [Example 23]
d. Oc1ccc(NC(=S)NCCc2ccccc2)cc1O [Example 47]
e. Oc1ccc(CNC(=S)Nc2ccccc2)cc1O [Example 46]
Please put the entries in order of rising MED. # list labels per requested ordering b, e, d, c, a
(b: 0.1 µM, e: 3 µM, d: 5 µM, c: 10 µM, a: 30 µM)
